target: IL-23 (human, p19/p40 heterodimer) (Homo sapiens, UniProt Q9NPF7;P29460 SEQ:20-189,SEQ:23-328); experiment: filter; direct binding without tRNA; competition Kd 5 nM; details: tags: R&D Systems, carrier free; label: 5'-32P
Sequence (Q9NPF7 20-189, chain 1 of 2): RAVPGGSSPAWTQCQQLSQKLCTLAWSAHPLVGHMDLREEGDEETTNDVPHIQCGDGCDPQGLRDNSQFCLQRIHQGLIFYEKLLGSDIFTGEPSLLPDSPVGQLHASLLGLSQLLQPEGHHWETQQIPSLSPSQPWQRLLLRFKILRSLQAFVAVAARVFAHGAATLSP
Sequence (P29460 23-328, chain 2 of 2): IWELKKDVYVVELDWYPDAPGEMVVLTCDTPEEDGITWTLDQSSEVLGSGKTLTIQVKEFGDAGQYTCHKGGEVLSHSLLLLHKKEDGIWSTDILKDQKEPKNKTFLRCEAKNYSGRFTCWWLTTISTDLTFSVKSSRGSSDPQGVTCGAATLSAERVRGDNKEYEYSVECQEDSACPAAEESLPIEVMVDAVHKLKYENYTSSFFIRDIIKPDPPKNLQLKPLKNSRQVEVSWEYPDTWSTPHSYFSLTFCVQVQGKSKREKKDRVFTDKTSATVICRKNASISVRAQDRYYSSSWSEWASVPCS
quantity measured: Kd (nM)
Return type: number; implicit unit nM.

# Kd lookup, item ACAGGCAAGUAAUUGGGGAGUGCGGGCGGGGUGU (mixed, dRmY; PS between nt 18 and 19 [N = PS linkage, not a base; PS between nt 18 and 19; 2'-deoxy all A/G; 2'-OMe all C/U (2,6,10,13,14,21,23,27,32,34)]) [ARC1160]
38
